From: ChEMBL document CHEMBL1201862

- Tested on: T47D
- experimental details: NCI tumour cell line growth inhibition, 48 h
Calls of active or inactive are those of the source. Cut-off read from the data, not from the text of the source: active = GI50 up to about 1.1 µM and inactive = higher.
readout type: GI50

Observe how each entry below is paired with its result.
>  <molecule>
Clc1ccc(/C=N/c2ccc(Oc3ccc(Cl)cc3)c(Cl)c2)cc1

>  <readout type>
GI50

>  <experimental value>
19.5 µM (inactive)

$$$$
>  <molecule>
C=C(C)[C@@H]1CC[C@]2(C)CC[C@]3(C)[C@H](CC[C@@H]4[C@@]5(C)CC[C@H](OC(=O)c6ccccc6)C(C)(C)[C@@H]5CC[C@]43C)[C@@H]12

>  <readout type>
GI50

>  <experimental value>
> 100 µM (inactive)

$$$$
>  <molecule>
C/C(=N\NC(=S)N1CCOCC1)c1nc2cccnc2[nH]1

>  <readout type>
GI50

>  <experimental value>
29.4 µM (inactive)

$$$$
>  <molecule>
N/N=C(/CC(O)(C(F)(F)F)C(F)(F)F)c1ccccc1

>  <readout type>
GI50

>  <experimental value>
> 10 µM (inactive)

$$$$
>  <molecule>
COC(=O)C(C)(NC(=O)C(CC(=O)OC(C)(C)C)NC(=O)OC(C)(C)C)c1ccccc1 (stereo unspecified)

>  <readout type>
GI50

>  <experimental value>
35.4 µM (inactive)

$$$$

Moving on to the next molecule.
Look up GI50 with T47D for this molecule: `N#CCCC(C=O)(CCC#N)CCC#N`
> 100 µM (inactive)

====

- Tested on: SF-295
- experimental details: NCI tumour cell line growth inhibition, 48 h
Activity calls are given as the source filed them. Cut-off read from the data, not from the text of the source: active = GI50 up to about 1.1 µM and inactive = higher.
readout type: GI50

Observe how each entry below is paired with its result.
>  <compound>
COC(=O)C1CC23C=CCN4CC(C2C)C2(c5ccccc5NC12)C43 (configuration not stated)

>  <GI50>
> 100 µM (inactive)

$$$$
>  <compound>
COc1ccc2nc3cc([N+](=O)[O-])ccc3c(Nc3ccc(S(=O)(=O)NC(C)=O)cc3)c2c1

>  <GI50>
> 100 µM (inactive)

$$$$

Quick one: GI50 of `Cc1ccsc1/C=N/Nc1ncccn1` ?
> 100 µM (inactive)

Do the same for `O=[N+]([O-])c1ccc(-n2nnc(C3=NCCCN3)c2-c2ccc(Cl)cc2)cc1` please
> 100 µM (inactive)

Do the same for `O=C([C@H](O)[C@@H](O)c1ccc(Br)cc1)C12CC3CC(CC(C3)C1)C2` please
13 µM (inactive)

Do the same for C1OC1CO[C@@H]1CO[C@H]2[C@@H]1OC[C@H]2OCC1CO1 (some centres not stated) please
> 100 µM (inactive)

Do the same for COC(CN(C)C(=O)C(C)NC(=O)c1ccccc1)OC (configuration not stated) please
> 100 µM (inactive)

Do the same for `C[N+]1(C)CCC(C#N)(c2ccccc2)CC1` please
> 100 µM (inactive)

Do the same for `C1=C2SSC3=CC=C(SSc4ccc(s4)SSC4=CC=C(SSC(=C1)S2)S4)S3` please
> 100 µM (inactive)

Do the same for O=C(O)C1CCC(=O)N1S(=O)(=O)c1ccccc1 (configuration not stated) please
> 100 µM (inactive)

Do the same for `NC(=O)c1ccc2c(c1)S(=O)(=O)c1ccccc1C2=O` please
57.8 µM (inactive)

Do the same for `C/C(=C\C(=O)Nc1ccc2[nH]nnc2c1)Nc1ccc2[nH]nnc2c1` please
> 100 µM (inactive)

Do the same for `O=c1oc2ccccc2n1CCN1CCCCC1` please
> 100 µM (inactive)

Do the same for CC(=O)N(CCc1ccccc1)C(C#N)c1ccc(OCCCCCCCCCCOc2ccc(C(C#N)N(CCc3ccccc3)C(C)=O)cc2)cc1 (configuration not stated) please
12.4 µM (inactive)

Do the same for `O=C1OCC(CN2CCC(n3c(=O)[nH]c4ccccc43)CC2)=C1c1ccccc1` please
26.4 µM (inactive)

Do the same for `CC(C)C(=O)[C@@]1(C)SC[C@H]2CCN=C21` please
> 100 µM (inactive)

Do the same for `COC(=O)/C=C1/OC(c2ccc(C)cc2)=C(Cl)C1=O` please
19.8 µM (inactive)

Do the same for `CCCC(CCC(=O)O)(CCC(=O)O)[N+](=O)[O-]` please
> 100 µM (inactive)
